All values here come from patent US20100022483A1.

- Run description: Mammalian cytotoxicity assay (resazurin), COS-1 cells
- Assay type: cell-based
- Conditions: African green monkey, read-out: Cytotox. COS-1
Property measured: IC50 at 24 h

Exercise: // returns reported IC50 at 24 h for input `CN(C)[C@@H]1C(O)=C(C(N)=O)C(=O)[C@@]2(O)C(O)=C3C(=O)c4c(O)ccc(-c5cccc(C(=O)NCCN6CCCC6)c5)c4C[C@H]3C[C@@H]12`
Solution: > 39.6 µM

Exercise: // returns reported IC50 at 24 h for input `COCC(=O)c1ccc(O)c2c1C[C@H]1C[C@H]3[C@H](N(C)C)C(O)=C(C(N)=O)C(=O)[C@@]3(O)C(O)=C1C2=O`
Solution: > 53.4 µM

Exercise: // returns reported IC50 at 24 h for input `CC(C)N1CCN(CC(=O)c2ccc(O)c3c2C[C@H]2C[C@H]4[C@H](N(C)C)C(O)=C(C(N)=O)C(=O)[C@@]4(O)C(O)=C2C3=O)CC1`
Solution: > 130 µM

Exercise: // returns reported IC50 at 24 h for input CO/N=C/c1ccc(-c2ccc(O)c3c2C[C@H]2C[C@H]4[C@H](N(C)C)C(O)=C(C(N)=O)C(=O)[C@@]4(O)C(O)=C2C3=O)o1 (stereo in doubt)
Solution: < 2.44 µM

Exercise: // returns reported IC50 at 24 h for input `CN(C)[C@@H]1C(O)=C(C(N)=O)C(=O)[C@@]2(O)C(O)=C3C(=O)c4c(O)ccc(-c5cccc(CCCN6CCCCC6)c5)c4C[C@H]3C[C@@H]12`
Solution: 59.4 µM

Exercise: // returns reported IC50 at 24 h for input `CN(C)[C@@H]1C(O)=C(C(N)=O)C(=O)[C@@]2(O)C(O)=C3C(=O)c4c(O)ccc(-c5ccc(CNCc6cccnc6)o5)c4C[C@H]3C[C@@H]12`
Solution: > 39.3 µM

Exercise: // returns reported IC50 at 24 h for input `CN(C)[C@@H]1C(O)=C(C(N)=O)C(=O)[C@@]2(O)C(O)=C3C(=O)c4c(O)ccc(-c5coc(CN6CCCCC6)c5)c4C[C@H]3C[C@@H]12`
Solution: > 42.9 µM

Exercise: // returns reported IC50 at 24 h for input `CN(C)CCNC(=O)c1cccc(-c2ccc(O)c3c2C[C@H]2C[C@H]4CC(O)=C(C(N)=O)C(=O)[C@@]4(O)C(O)=C2C3=O)c1`
Solution: > 15.9 µM

Exercise: // returns reported IC50 at 24 h for input `CN(C)CC(=O)Nc1ccc(-c2ccc(O)c3c2C[C@H]2C[C@H]4[C@H](N(C)C)C(O)=C(C(N)=O)C(=O)[C@@]4(O)C(O)=C2C3=O)cc1`
Solution: > 13.6 µM

Exercise: // returns reported IC50 at 24 h for input `CCOC(=O)N1CCN(CC(=O)c2ccc(O)c3c2C[C@H]2C[C@H]4[C@H](N(C)C)C(O)=C(C(N)=O)C(=O)[C@@]4(O)C(O)=C2C3=O)CC1`
Solution: > 40.7 µM

Exercise: // returns reported IC50 at 24 h for input `COCCCOCCN(C)Cc1cccc(-c2ccc(O)c3c2C[C@H]2C[C@H]4[C@H](N(C)C)C(O)=C(C(N)=O)C(=O)[C@@]4(O)C(O)=C2C3=O)c1`
Solution: > 20 µM

---

- Run description: Mammalian cytotoxicity assay (resazurin), COS-1 cells
- Assay type: cell-based
- Conditions: African green monkey, read-out: Cytotox. COS-1
Property measured: IC50 at 24 h

Exercise: // returns reported IC50 at 24 h for input CN(C)CCNCc1ccc(-c2ccc(O)c3c2C[C@H]2C[C@H]4[C@H](N(C)C)C(O)=C(C(N)=O)C(=O)[C@@]4(O)C(O)=C2C3=O)o1 [CY]
Solution: > 142 µM

Exercise: // returns reported IC50 at 24 h for input COc1ccc(CNCc2ccc(-c3ccc(O)c4c3C[C@H]3C[C@H]5[C@H](N(C)C)C(O)=C(C(N)=O)C(=O)[C@@]5(O)C(O)=C3C4=O)cc2)cc1 (stereo in doubt) [AW]
Solution: < 1.97 µM

Exercise: // returns reported IC50 at 24 h for input CN(C)[C@@H]1C(O)=C(C(N)=O)C(=O)[C@@]2(O)C(O)=C3C(=O)c4c(O)ccc(-c5cccc(/C=C/C#N)c5)c4C[C@H]3C[C@@H]12 [CO]
Solution: 7.77 µM

---

Hi there, I'd appreciate the recorded MIC for every entry that follows.
- System: gram negative bacteria
- Run description: In vitro anti-bacterial activity assay (broth dilution MIC), gram negative bacteria
- Format: cell-based, E. coli
- Conditions: Pseudomonas aeruginosa, 18 h, P. aeruginosa K201 PAO6609; read-out: Median MIC's G− P. aeruginosa K201 PAO6609
Your answer is read as µg/mL, so omit the unit and give the number.

Exercise: What MIC appears in the records for this molecule with gram negative bacteria? `COCCCOCCN(C)Cc1cccc(-c2ccc(O)c3c2C[C@H]2C[C@H]4[C@H](N(C)C)C(O)=C(C(N)=O)C(=O)[C@@]4(O)C(O)=C2C3=O)c1`
Solution: 64

Exercise: What MIC appears in the records for this molecule with gram negative bacteria? COCCCNC(=O)c1cccc(-c2ccc(O)c3c2CC2CC4[C@H](N(C)C)C(O)=C(C(N)=O)C(=O)[C@@]4(O)C(O)=C2C3=O)c1 (stereo partly drawn)
Solution: 64

Exercise: What MIC appears in the records for this molecule with gram negative bacteria? `CN(C)[C@@H]1C(O)=C(C(N)=O)C(=O)[C@@]2(O)C(O)=C3C(=O)c4c(O)ccc(C(=O)CNCC(N)=O)c4C[C@H]3C[C@@H]12`
Solution: 64

---

- Test system: gram negative bacteria
- Run description: In vitro anti-bacterial activity assay (broth dilution MIC), gram negative bacteria
- Type: cell-based, E. coli
- Conditions: Escherichia coli, 18 h, E. coli MG 1655; read-out: Median MIC's G− E. coli MG 1655
Threshold check on MIC: strictly below 30 µg/mL is Condition met; on or above 30 µg/mL is Condition not met.

Exercise: Quick check: does `CN(C)CCCN(C)Cc1cccc(-c2ccc(O)c3c2C[C@H]2C[C@H]4[C@H](N(C)C)C(O)=C(C(N)=O)C(=O)[C@@]4(O)C(O)=C2C3=O)c1` have MIC under 30 µg/mL?
Solution: Condition met

Exercise: Quick check: does COCCCNC(=O)c1cccc(-c2ccc(O)c3c2CC2CC4[C@H](N(C)C)C(O)=C(C(N)=O)C(=O)[C@@]4(O)C(O)=C2C3=O)c1 (stereo partly shown) have MIC under 30 µg/mL?
Solution: Condition not met

Exercise: Quick check: does `CN(C)[C@@H]1C(O)=C(C(N)=O)C(=O)[C@@]2(O)C(O)=C3C(=O)c4c(O)ccc(-c5cccc(C(=O)NCCN6CCCCC6)c5)c4C[C@H]3C[C@@H]12` have MIC under 30 µg/mL?
Solution: Condition met

Exercise: Quick check: does `COCCNCC(=O)c1ccc(O)c2c1C[C@H]1C[C@H]3[C@H](N(C)C)C(O)=C(C(N)=O)C(=O)[C@@]3(O)C(O)=C1C2=O` have MIC under 30 µg/mL?
Solution: Condition not met

Exercise: Quick check: does `CN(C)[C@H]1C(O)=C(C(N)=O)C(=O)[C@@]2(O)C(O)=C3C(=O)c4c(O)ccc(-c5cccc(CCCN6CCCCC6)c5)c4C[C@H]3C[C@@H]12` have MIC under 30 µg/mL?
Solution: Condition not met

Exercise: Quick check: does `CN(C)CCNC(=O)c1cccc(-c2ccc(O)c3c2C[C@H]2C[C@H]4[C@H](N(C)C)C(O)=C(C(N)=O)C(=O)[C@@]4(O)C(O)=C2C3=O)c1` have MIC under 30 µg/mL?
Solution: Condition met

Exercise: Quick check: does `CN(C)CC(=O)N1CC=C(c2ccc(O)c3c2C[C@H]2C[C@H]4[C@H](N(C)C)C(O)=C(C(N)=O)C(=O)[C@@]4(O)C(O)=C2C3=O)CC1` have MIC under 30 µg/mL?
Solution: Condition met

Exercise: Quick check: does `CN(C)[C@@H]1C(O)=C(C(N)=O)C(=O)[C@@]2(O)C(O)=C3C(=O)c4c(O)ccc(C(=O)CNCc5ccco5)c4C[C@H]3C[C@@H]12` have MIC under 30 µg/mL?
Solution: Condition not met

Exercise: Quick check: does `CN1CCN(CC(=O)c2ccc(O)c3c2C[C@H]2C[C@H]4[C@H](N(C)C)C(O)=C(C(N)=O)C(=O)[C@@]4(O)C(O)=C2C3=O)CC1` have MIC under 30 µg/mL?
Solution: Condition met

Exercise: Quick check: does `CN(C)[C@@H]1C(O)=C(C(N)=O)C(=O)[C@@]2(O)C(O)=C3C(=O)c4c(O)ccc(C(=O)CNc5cccnc5)c4C[C@H]3C[C@@H]12` have MIC under 30 µg/mL?
Solution: Condition not met

Exercise: Quick check: does `CN(Cc1cccnc1)Cc1cccc(-c2ccc(O)c3c2C[C@H]2C[C@H]4[C@H](N(C)C)C(O)=C(C(N)=O)C(=O)[C@@]4(O)C(O)=C2C3=O)c1` have MIC under 30 µg/mL?
Solution: Condition not met

Exercise: Quick check: does `COc1ccc(CN(C)C)cc1-c1ccc(O)c2c1C[C@H]1C[C@H]3[C@H](N(C)C)C(O)=C(C(N)=O)C(=O)[C@@]3(O)C(O)=C1C2=O` have MIC under 30 µg/mL?
Solution: Condition met

Exercise: Quick check: does `CN(C)CCCNCc1cccc(-c2ccc(O)c3c2C[C@H]2C[C@H]4[C@H](N(C)C)C(O)=C(C(N)=O)C(=O)[C@@]4(O)C(O)=C2C3=O)c1` have MIC under 30 µg/mL?
Solution: Condition met

Exercise: Quick check: does `CN(C)CCCc1cccc(-c2ccc(O)c3c2C[C@H]2C[C@H]4[C@H](N(C)C)C(O)=C(C(N)=O)C(=O)[C@@]4(O)C(O)=C2C3=O)c1` have MIC under 30 µg/mL?
Solution: Condition met

Exercise: Quick check: does `CN(C)[C@@H]1C(O)=C(C(N)=O)C(=O)[C@@]2(O)C(O)=C3C(=O)c4c(O)ccc(C(=O)Cn5ccnc5)c4C[C@H]3C[C@@H]12` have MIC under 30 µg/mL?
Solution: Condition not met

Exercise: Quick check: does CCN(CC)CCCC(C)NC(=O)c1ccc(O)c2c1C[C@H]1C[C@H]3[C@H](N(C)C)C(O)=C(C(N)=O)C(=O)[C@@]3(O)C(O)=C1C2=O (stereo partly shown) have MIC under 30 µg/mL?
Solution: Condition not met

Exercise: Quick check: does `COCCNC(=O)c1cccc(-c2ccc(O)c3c2C[C@H]2C[C@H]4[C@H](N(C)C)C(O)=C(C(N)=O)C(=O)[C@@]4(O)C(O)=C2C3=O)c1` have MIC under 30 µg/mL?
Solution: Condition not met

Exercise: Quick check: does `COCCN(C)CC(=O)c1ccc(O)c2c1C[C@H]1C[C@H]3[C@H](N(C)C)C(O)=C(C(N)=O)C(=O)[C@@]3(O)C(O)=C1C2=O` have MIC under 30 µg/mL?
Solution: Condition met

Exercise: Quick check: does `CN(CCOC(C)(C)C)Cc1cccc(-c2ccc(O)c3c2C[C@H]2C[C@H]4[C@H](N(C)C)C(O)=C(C(N)=O)C(=O)[C@@]4(O)C(O)=C2C3=O)c1` have MIC under 30 µg/mL?
Solution: Condition met

Exercise: Quick check: does `CN(C)CCCNC(=O)c1cccc(-c2ccc(O)c3c2C[C@H]2C[C@H]4[C@@H](N(C)C)C(O)=C(C(N)=O)C(=O)[C@@]4(O)C(O)=C2C3=O)c1` have MIC under 30 µg/mL?
Solution: Condition not met

Exercise: Quick check: does COC(C)CNCC(=O)c1ccc(O)c2c1C[C@H]1C[C@H]3[C@H](N(C)C)C(O)=C(C(N)=O)C(=O)[C@@]3(O)C(O)=C1C2=O (stereo partly shown) have MIC under 30 µg/mL?
Solution: Condition not met

Exercise: Quick check: does CN(C)[C@H]1C(O)=C(C(N)=O)C(=O)[C@@]2(O)C(O)=C3C(=O)c4c(O)ccc(-c5cccc(C(N)=O)c5)c4C[C@H]3C[C@@H]12 (stereo in doubt) have MIC under 30 µg/mL?
Solution: Condition not met
